Recorded values, source PubChem BioAssay AID449762.

Assay: M. tuberculosis growth inhibition, HTS (AID 449762);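 further: bacterial growth assessed after seven days of incubation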
Details: M. tuberculosis H37Rv growth inhibition, 7H9 media; at 25 µM; hits give high values
Among all 330,000 compounds or so, about 1,900 (0.58%) were called active. Not shown: some 4% with an inconclusive outcome. The list is a sample of the results. Entries with a potency or affinity are not part of this list.
Let's look at some molecules and their measured inhibition.
REPORTED_ENDPOINT: inhibition (%)

INSERT INTO assay_data (molecule, readout_units, recorded_number) VALUES
  ('NC(=S)N=Nc1c(O)n(CCCl)c2ccc(Br)cc12', '%', -8.7),
  ('Cc1nnc(SCc2c(Cl)cccc2Cl)n(N)c1=O', '%', -0.46),
  ('COc1cccc(C2c3[nH]c4ccccc4c3CCN2Cc2cccn2-c2ncccn2)c1 (stereo not drawn)', '%', 2.06),
  ('O=C(CSc1ccc(-c2cccnc2)nn1)Nc1ccc(Br)cc1', '%', -0.4),
  ('CCOc1ccc(CCNC(=O)c2cccc(S(=O)(=O)N3CC(C)OC(C)C3)c2)cc1OCC (stereo not drawn)', '%', 2.57),
  ('Cn1c(=N)n(CC(=O)c2cccs2)c2ccccc21', '%', -0.34),
  ('O=C1OCCC1Sc1nnc(-c2ccccc2)o1 (stereo not drawn)', '%', -4.39),
  ('O=C1CC(Sc2nnc(-c3ccccc3)o2)C(=O)N1c1ccccc1 (stereo not drawn)', '%', -3.28),
  ('COc1ccc(/C=N/NC(=O)c2cc3c(ccc4ccccc43)o2)cc1OC', '%', 11.8),
  ('Cc1cccc(NC(=O)CN2CCN(C(=O)COc3cccc(Br)c3)CC2)c1C', '%', 1.13),
  ('O=C(O)c1ccc(-n2c(-c3ccccc3)n[nH]c2=S)cc1', '%', -4.35),
  ('O=C(NC1CCCCCC1)c1cc(S(=O)(=O)N2CCOCC2)ccc1N1CCCCC1', '%', -7.36),
  ('O=C(c1ccc2c(c1)OCO2)C1CCCN(Cc2cn[nH]c2-c2ccccc2)C1 (stereo not drawn)', '%', 4.84),
  ('O=C(CN1C(=O)S/C(=C/c2cc(Br)cs2)C1=O)N1CCOCC1', '%', 5.49),
  ('CCOc1ccccc1NC(=S)NC1CCCCC1', '%', -19.5),
  ('C=CCNC(=O)COC(=O)c1ccc(Sc2nncn2C)c([N+](=O)[O-])c1', '%', -2.55),
  ('O=C(O)CCCn1cc(NC(=O)COc2ccccc2)cn1', '%', 1.85),
  ('CC(=O)NS(=O)(=O)c1ccc(NS(=O)(=O)c2ccccc2[N+](=O)[O-])cc1', '%', 3.53),
  ('COC(=O)c1nnn(CC(=O)NC(=O)Nc2cccc(C)c2C)c1C(=O)OC', '%', -2.49),
  ('O=C(NCC1CCCO1)C1c2ccccc2Oc2ccccc21 (stereo not drawn)', '%', -7.07),
  ('CCOC(=O)N1CCC2(CC1)CC(=O)c1c(ccc3oc(C(=O)O)c(C)c13)O2', '%', -2.67),
  ('O=C(/C=C/Nc1ccc(Br)cc1F)c1ccco1', '%', 4.98),
  ('C=CCn1c(SC)nnc1-c1ccc2ncccc2c1', '%', 0.53);

====

Test: M. tuberculosis growth inhibition, HTS (AID 449762);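 further: bacterial growth assessed after seven days of incubation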
Conditions: M. tuberculosis H37Rv growth inhibition, 7H9 media; at 25 µM; hits give high values
Screen size: about 330,000 compounds; about 1,900 (0.58%) were called active. Inconclusive results (about 4%) are left out. The list is a sample of the results. Potency and affinity values are given separately.
# inhibition >= -10% gives true (1), anything below gives false (0)

INSERT INTO results (chemical_smiles, class_assignment) VALUES
  ('COc1ccccc1NC(=O)c1ccc2nsnc2c1', 'true (1)'),
  ('COc1ccc(/C=C/C(=O)OCC(=O)Nc2ccc(Cl)cn2)cc1', 'true (1)'),
  ('COc1ccc2[nH]c3c(c2c1)CCN1C(=O)N([C@@H](C)C(=O)NCCc2ccc(OC)c(OC)c2)C(=O)[C@]31C', 'false (0)'),
  ('Cc1cc(NC(=O)CSc2n[nH]c(CC(C)C)n2)no1', 'false (0)'),
  ('CCC(CC)c1nnc(NC(=O)c2cc([N+](=O)[O-])ccc2N2CCOCC2)s1', 'true (1)'),
  ('CCOc1ccc(NC(=O)CN(C)C(=O)c2c(-c3ccccc3)noc2C)cc1OCC', 'false (0)');

====

Experiment: M. tuberculosis growth inhibition, HTS (AID 449762);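 further: bacterial growth assessed after seven days of incubation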
Conditions: M. tuberculosis H37Rv growth inhibition, 7H9 media; at 25 µM; hits give high values
In all, about 330,000 compounds went through this assay and about 1,900 (0.58%) were called active. Another 4% or so got no clear call; they are omitted. A selection follows. Measured potencies and affinities stand elsewhere.
Measured inhibition values are reported for all entries that follow.
REPORTED_ENDPOINT: inhibition (%)

INSERT INTO results (compound, recorded_number) VALUES
  ('CCc1ccccc1OCCCOc1ccc(OC)cc1', 3.7),
  ('COC(=O)C1=C(c2c(C)noc2C)C[C@@H]2CC[C@H]1N2C(=O)N1CCC(C)CC1', -12.5),
  ('CCCOc1ccc(-c2csc3ncn(Cc4ccc(C(=O)O)cc4)c(=O)c23)cc1', 11.8),
  ('O=C(NCc1ccc(Cl)cc1)c1ccc(CSc2nc3ccncc3[nH]2)cc1', 5.93),
  ('COc1ccc(CC(=O)N(Cc2ccccc2)c2ccc(C)cc2)cc1S(=O)(=O)N1CCOCC1', 4.3),
  ('CN(CC(=O)Nc1ccc(S(=O)(=O)N2CCCC2)cc1)Cc1ccc(Cl)cc1Cl', -3.94),
  ('CCOc1cc(S(=O)(=O)N2CCN(S(=O)(=O)CC)CC2)c(OCC)cc1-n1cnnn1', 0.44),
  ('CC(=O)c1ccc(NC(=O)C(C)Sc2nnc3ccccn23)cc1 (stereo not given)', -6.02),
  ('Cc1nc2c3ccccc3nc(NNC(=O)CCC(=O)N3CCC(C)CC3)n2n1', -3.15),
  ('Cc1cccc(Cn2c(SCC(=O)Nc3ccccc3)nc3c2c(=O)[nH]c(=O)n3C)c1', -13.5);

====

Experiment: M. tuberculosis growth inhibition, HTS (AID 449762);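 further: bacterial growth assessed after seven days of incubation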
Conditions: M. tuberculosis H37Rv growth inhibition, 7H9 media; at 25 µM; hits give high values
In all, about 330,000 compounds went through this assay and about 1,900 (0.58%) were called active. Another 4% or so got no clear call; they are omitted. Not all results are given here. Measured potencies and affinities stand elsewhere.
Catalogue of inhibition values
REPORTED_ENDPOINT: inhibition (%)

INSERT INTO assay_data (compound, recorded_number) VALUES
  ('CCOc1ccc(C(=O)NCC(=O)N2CCC(C)CC2)cc1OCC', -0.53),
  ('CSc1nc2ccccc2n1CC(=O)Nc1c(C)n(C)n(-c2ccccc2)c1=O', -4.84),
  ('O=C(c1ccc2nc(N3CCOCC3)sc2c1)N1CCCC1', -5.7),
  ('Cc1cccc(OCCCC(=O)Nc2nccs2)c1C', 8.02),
  ('CCOC(=O)/C(=C\C=C\c1ccccc1)NC(=O)c1ccccc1', -0.56),
  ('CS(=O)(=O)N(CC(=O)Nc1ccc(Br)cc1F)C1CCCCC1', -1.79),
  ('COC(C/C=C/[C@H](O)[C@@H](C)OCc1ccccc1)OC', -3.21),
  ('O=C(c1ccc2nc(N3CCOCC3)sc2c1)N1CCN(C(=O)c2ccco2)CC1', -6.14),
  ('O=C(COc1ccccc1)Nc1sc2c(c1C(=O)NCc1cccnc1)CCCC2', -7.35),
  ('COc1ccc(CCN2CC(C(=O)NCc3ccco3)CC2=O)cc1OC (stereo not drawn)', -1.89),
  ('COc1ccc2oc(=O)c(C(=O)NCc3ccc(C)cc3)cc2c1', -2.24),
  ('Cc1ccc(CNC(=O)CN(C)S(=O)(=O)c2cnc[nH]2)cc1', -4.45),
  ('COc1cc(OC)c(C(=O)Nc2cccnc2)cc1OC', 3.08),
  ('COc1cc(NC(=O)C2CCCN(S(=O)(=O)c3ccc4[nH]c(=O)ccc4c3)C2)cc(OC)c1 (stereo not drawn)', -0.31),
  ('CCN1C(=O)C(CC(=O)NCCc2ccccc2)N(NC(=O)c2cccnc2)C1=S (stereo not drawn)', 12),
  ('O=C(Nc1cccc(Cl)c1)NC1CC2CCC(C1)N2Cc1cccs1 (stereo not drawn)', -7),
  ('CCOC(=O)C(=O)Nc1ccc(OCc2ccccc2)cc1', 62.7),
  ('O=C(O)c1ccc(/C=N/NC(=O)c2cc3c(ccc4ccccc43)o2)cc1', 4.81),
  ('O=C(Nc1sc2c(c1C(=O)NCc1cccnc1)CCCC2)c1ccco1', -2.45),
  ('COc1ccc(N2CCN(C(=O)COCC(=O)O)CC2)cc1', -6.23),
  ('CC(C)Oc1ccc(NC(N)=O)cc1', -11.6),
  ('Cc1cc(/C=C(\C#N)C(=O)NCc2ccccc2)cc(C)c1O', -9.9),
  ('N#CCCN(C(=O)COC(=O)c1nc(Cl)ccc1Cl)c1ccccc1', -6.38);
